- System: MRSA USA500 (NRS385)
- method: MIC/MBC broth microdilution, NRS385 (USA500)
- Assay type: cell-based
- condition_parameters: Staphylococcus aureus; Table 2; MRSA USA500; read-out: Minimum Inhibitory Concentration
Listing of entries alongside the reported MIC.

compound	unit_descriptor	MIC
C/C(=N\NC(=N)N)c1sc(-c2ccc(C3CCCCC3)cc2)nc1C [Compound 8]	µg/mL	0.7
C/C(=N\NC(=N)N)c1sc(-c2ccc(C3=CCCCC3)cc2)nc1C [Compound 7]	µg/mL	1.2
CCCCCCCc1ccc(-c2nc(C)c(/C(C)=N/NC(=N)N)s2)cc1 [Compound 1e]	µg/mL	3
C/C(=N\NC(=N)N)c1sc(-c2ccc(C(C)(C)C)cc2)nc1C [Compound 1g]	µg/mL	1
CCCc1ccc(-c2nc(C)c(/C(C)=N/NC(=N)N)s2)cc1 [Compound 1c]	µg/mL	2.3
CCCCc1ccc(-c2nc(C)c(/C(C)=N/NC(=N)N)s2)cc1 [Compound 1a]	µg/mL	1.4
C/C(=N\NC(=N)N)c1sc(-c2ccc3ccccc3c2)nc1C [Compound 1h]	µg/mL	1.9
CCCCCc1ccc(-c2nc(C)c(/C(C)=N/NC(=N)N)s2)cc1 [Compound 1d]	µg/mL	1.1
C/C(=N\NC(=N)N)c1sc(-c2ccc(-c3ccccc3)cc2)nc1C [Compound 12]	µg/mL	1.2
CCCCCCCCCc1ccc(-c2nc(C)c(/C(C)=N/NC(=N)N)s2)cc1 [Compound 1f]	µg/mL	4.4
